# targetSystem: recombinant human MASP2 active protease (amino acids 297-686, C-terminal His Tag) (human, UniProt O00187 297-686)
# Sequence (O00187 other isoform, or with tags, fused parts or gaps limits assumed): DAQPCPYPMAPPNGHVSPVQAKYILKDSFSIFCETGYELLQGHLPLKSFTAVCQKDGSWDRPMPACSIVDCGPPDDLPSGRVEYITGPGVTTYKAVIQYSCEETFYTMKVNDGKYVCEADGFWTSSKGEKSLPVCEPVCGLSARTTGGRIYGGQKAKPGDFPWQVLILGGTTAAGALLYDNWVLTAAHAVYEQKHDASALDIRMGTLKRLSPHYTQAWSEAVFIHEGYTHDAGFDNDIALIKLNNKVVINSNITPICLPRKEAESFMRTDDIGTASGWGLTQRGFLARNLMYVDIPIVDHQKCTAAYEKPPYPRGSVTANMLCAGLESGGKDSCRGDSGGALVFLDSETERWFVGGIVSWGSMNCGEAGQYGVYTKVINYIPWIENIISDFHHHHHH
# assayProtocol: cell-based or functional assay
Bridge positions count the residues as written; N and C are the ends. Square brackets hold non-standard residues; d marks the D form. Ends that are not written are not given here. Pro(4-spirocPr) = O=C(O)[C@@H]1CC2(CC2)CN1; Oic = O=C(O)[C@@H]1C[C@@H]2CCCC[C@@H]2N1; PEG6 = NCCOCCOCCOCCOCCOCCOCCC(=O)O; tBuAla = CC(C)(C)C[C@H](N)C(=O)O; Pen = CC(C)(S)[C@H](N)C(=O)O; NMeC = CN[C@@H](CS)C(=O)O; Sar = CNCC(=O)O
Exercise: state measured human MASP2 IC50 for each of the binders provided.
Give bare numbers, in nM.

As a guide, the following entries are already answered.
binder	dataValue
AICSRS[tBuAla]P[Pro(4-spirocPr)]I[NMeC]IPD-NH2 (disulfide 3-11; N-terminus assumed; SMILES CC[C@H](C)[C@H](NC(=O)[C@H](C)N)C(=O)N[C@H]1CSSC[C@@H](C(=O)N[C@H](C(=O)N2CCC[C@H]2C(=O)N[C@@H](CC(=O)O)C(N)=O)[C@@H](C)CC)N(C)C(=O)[C@H]([C@@H](C)CC)NC(=O)[C@@H]2CC3(CC3)CN2C(=O)[C@@H]2CCCN2C(=O)[C@H](CC(C)(C)C)NC(=O)[C@H](CO)NC(=O)[C@H](CCCNC(=N)N)NC(=O)[C@H](CO)NC1=O) [AIC+SRS-((tBu)A)-P-((6S)-5-Azaspiro[2.4]heptane-6-carboxylic acid)-I-((N-Me)C)+IPD-NH2]	40
AICSRSLP[Oic]I[Pen]IP-NH2 (disulfide 3-11; N-terminus assumed; SMILES CC[C@H](C)[C@H](NC(=O)[C@H](C)N)C(=O)N[C@H]1CSSC(C)(C)[C@@H](C(=O)N[C@H](C(=O)N2CCC[C@H]2C(N)=O)[C@@H](C)CC)NC(=O)[C@H]([C@@H](C)CC)NC(=O)[C@@H]2C[C@@H]3CCCC[C@@H]3N2C(=O)[C@@H]2CCCN2C(=O)[C@H](CC(C)C)NC(=O)[C@H](CO)NC(=O)[C@H](CCCNC(=N)N)NC(=O)[C@H](CO)NC1=O) [AIC+SRSLP-(Oic)-I-(Pen)+IP-NH2]	63
HICSRS[tBuAla]PPI[Pen]IPD-NH2 (disulfide 3-11; N-terminus assumed; SMILES CC[C@H](C)[C@H](NC(=O)[C@@H](N)Cc1c[nH]cn1)C(=O)N[C@H]1CSSC(C)(C)[C@@H](C(=O)N[C@H](C(=O)N2CCC[C@H]2C(=O)N[C@@H](CC(=O)O)C(N)=O)[C@@H](C)CC)NC(=O)[C@H]([C@@H](C)CC)NC(=O)[C@@H]2CCCN2C(=O)[C@@H]2CCCN2C(=O)[C@H](CC(C)(C)C)NC(=O)[C@H](CO)NC(=O)[C@H](CCCNC(=N)N)NC(=O)[C@H](CO)NC1=O) [HIC+SRS-((tBu)A)-PPI-(Pen)+IPD-NH2]	75

Here's the next entry for you.
Briefly, human MASP2 IC50 measured for [Sar]ICSRS[tBuAla]PPI[Pen]IP[PEG6]-NH2 (disulfide 3-11; N-terminus assumed; SMILES CC[C@H](C)[C@H](NC(=O)CNC)C(=O)N[C@H]1CSSC(C)(C)[C@@H](C(=O)N[C@H](C(=O)N2CCC[C@H]2C(=O)NCCOCCOCCOCCOCCOCCOCCC(N)=O)[C@@H](C)CC)NC(=O)[C@H]([C@@H](C)CC)NC(=O)[C@@H]2CCCN2C(=O)[C@@H]2CCCN2C(=O)[C@H](CC(C)(C)C)NC(=O)[C@H](CO)NC(=O)[C@H](CCCNC(=N)N)NC(=O)[C@H](CO)NC1=O) [((N-Me)G)-IC+SRS-((tBu)A)-PPI-(Pen)+IP-(PEG5(22 atoms))-NH2] : 48
